- protocol-text: reducers of endogenous Her2 protein level, primary screen, SKBR3 breast tumor cells, AlphaScreen, ATP viability (AID 461);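 further: percent of carrier control wells set as 100% viability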
- settings: 18-24 h, measured here: SKBR3 viability, ATP luminescence, at 10 µM
Please provide measured viability for the entries that follow.
One number for each entry, in %.

These recorded examples may help you get a feel for the data.
molecule	viability, %
Cc1cc2c(=O)n(Cc3ccco3)c(SCC(=O)NCc3ccco3)nc2s1	100
O=C(CCC(=O)N(c1cccc(F)c1)C(C(=O)NC1CCCC1)c1ccncc1)Nc1cccnc1 (stereo not drawn)	100
CCNC(=O)c1ccc(NS(=O)(=O)c2ccccc2)cc1	124
c1ccc2c(c1)Cn1c-2nc2ccccc21	114
Cn1ccnc1SCCC#N	100
N#Cc1cn(CC(=O)N2CCCC2)c2ccccc12	118
O=C(c1ccco1)N(Cc1cc2ccccc2[nH]c1=O)C1CCCCC1	98.5
O=C1CS/C(=N\C(=O)N2c3ccccc3Sc3ccccc32)N1	102
Cc1cc(C(=O)CN2C(=O)c3ccccc3C2=O)c(C)n1Cc1cccs1	122
Cc1ccc(-n2ncc3c(Nc4c(C)n(C)n(-c5ccccc5)c4=O)ncnc32)c(C)c1	99

List reported viability for each of these molecules:
1. CC(=O)Nc1c(Cl)n(C(C)=O)c2ccccc12
2. O=C(C(c1ccccc1)c1ccccc1)N1CCN(Cc2ccccn2)CC1
3. O=C(O)COc1ccc2occ(C(=O)c3ccccc3)c2c1
4. COc1cccc(Cn2c(Oc3ccccc3)nc3c2c(=O)n(C)c(=O)n3C)c1
5. CCN(CC)CCCC1(CN)OCCc2ccccc21 (stereo not drawn)
6. Cc1cc(NC(=O)COC(=O)c2cccc(S(=O)(=O)N3CCOCC3)c2)no1

85
81
102
100
98.5
112

Record viability for all entries; do not skip any.
1. CCOC(=O)N1CCN(Cc2cc(=O)oc3ccc4ccccc4c23)CC1
2. O=C(C1CC1)N(Cc1ccco1)c1nc(-c2ccccc2)cs1
3. O=C(NCCC1=CCCCC1)c1cc2c(s1)CS(=O)(=O)C2
4. COc1cccc(NC(=O)N2CCN(c3cccc(C)c3C)CC2)c1

1: 91.5; 2: 96.5; 3: 114; 4: 102
